Target or system: Accessory gene regulator protein A (Staphylococcus aureus, UniProt P0A0I7)
Sequence (P0A0I7 whole entry): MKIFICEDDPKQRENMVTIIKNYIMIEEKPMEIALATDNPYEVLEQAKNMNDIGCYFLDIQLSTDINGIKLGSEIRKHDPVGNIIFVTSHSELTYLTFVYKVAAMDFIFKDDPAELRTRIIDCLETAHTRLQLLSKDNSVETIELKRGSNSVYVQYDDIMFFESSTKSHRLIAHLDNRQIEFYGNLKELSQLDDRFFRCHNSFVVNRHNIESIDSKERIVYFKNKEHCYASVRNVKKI
Assay: Inhibition of Staphylococcus aureus RN6390B Agr-mediated RNA3 promoter activation measured up to 6 hrs by Northern blot analysis
Property: pIC50
By convention, pIC50 is the negative base-10 log of a molar concentration.

GET /values?item= CCCCCCCCCC(=O)CC(=O)N[C@H]1CCOC1=O &system= Accessory gene regulator protein A (Staphylococcus aureus, UniProt P0A0I7) returns pIC50: 5.22
